Record form. Attribute: percent of parent. Fill in for each entry.
B1: PME1 (found with purified B55 variants) [human] / B55α WT (immunopurified, Fig. 2) [not stated] (parent complex)
chain 1: MSALEKSMHLGRLPSRPPLPGSGGSQSGAKMRMGPGRKRDFSPVPWSQYFESMEDVEVENETGKDTFRVYKSGSEGPVLLLLHGGGHSALSWAVFTAAIISRVQCRIVALDLRSHGETKVKNPEDLSAETMAKDVGNVVEAMYGDLPPPIMLIGHSMGGAIAVHTASSNLVPSLLGLCMIDVVEGTAMDALNSMQNFLRGRPKTFKSLENAIEWSVKSGQIRNLESARVSMVGQVKQCEGITSPEGSKSIVEGIIEEEEEDEEGSESISKRKKEDDMETKKDHPYTWRIELAKTEKYWDGWFRGLSNLFLSCPIPKLLLLAGVDRLDKDLTIGQMQGKFQMQVLPQCGHAVHEDAPDKVAEAVATFLIRHRFAEPIGGFQCVFPGC
chain 2: MAGAGGGNDIQWCFSQVKGAVDDDVAEADIISTVEFNHSGELLATGDKGGRVVIFQQEQENKIQSHSRGEYNVYSTFQSHEPEFDYLKSLEIEEKINKIRWLPQKNAAQFLLSTNDKTIKLWKISERDKRPEGYNLKEEDGRYRDPTTVTTLRVPVFRPMDLMVEASPRRIFANAHTYHINSISINSDYETYLSADDLRINLWHLEITDRSFNIVDIKPANMEELTEVITAAEFHPNSCNTFVYSSSKGTIRLCDMRASALCDRHSKLFEEPEDPSNRSFFSEIISSISDVKFSHSGRYMMTRDYLSVKIWDLNMENRPVETYQVHEYLRSKLCSLYENDCIFDKFECCWNGSDSVVMTGSYNNFFRMFDRNTKRDITLEASRENNKPRTVLKPRKVCASGKRKKDEISVDSLDFNKKILHTAWHPKENIIAVATTNNLYIFQDKVN

variants of: B1; experiment: immunopurification of YFP-B55α variants (IP: YFP), Western blot quantification; read off a plot

Go through the list and state percent of parent for each entry.
1. chain 2 Y337A
2. chain 2 F280A

Result:
~53%
~130%

Okay, here is my list. What is percent of parent for each of these?
1. chain 2 D197A
2. chain 2 H179A
3. chain 2 T230A
4. chain 2 D340A
5. chain 2 F343A
6. chain 2 Y178A
7. chain 2 I284A
8. chain 2 L198A

Result:
1. ~3%
2. ~170%
3. ~3%
4. ~50%
5. ~3%
6. ~13%
7. ~13%
8. ~2%

Value sought for every listed variant: percent of parent.
1. chain 2 V228A
2. chain 2 S287A
3. chain 2 L225A

Result:
~9%
~4%
~3%
